This section presents molecules with their documented pIC50 values.
# Test system: TLR2 induced IL-6 in peripheral blood mononuclear cells (PBMCs)
# experimental protocol: PBMC TLR2 Induced IL-6 Assay
# Assay type: cell-based, human
# setup conditions: Homo sapiens, PBMC, PBMC TLR2 Induced IL-6 Assay; lipoteichoic acid stimulation, IL-6 by ELISA; read-out: Cell IC50
Please report pIC50 as the negative decimal logarithm of the molar concentration, giving only the number.

# example entries with known answers
CC(C)NC(=O)c1cnc(-n2ncc3cc(C#N)cnc32)cc1Nc1cnn(CC(F)F)c1
6.61
CC(C)(O)[C@H](F)CNC(=O)c1cnc(-n2cnc3cc(Cl)cnc32)cc1Nc1cnn(CC(F)F)c1
7.08
CC(C)(C)Nc1cc(-n2ncc3cc(C#N)c(N)nc32)ncc1C(=O)NC[C@@H](F)C(C)(C)O
7.49
CCOCCNC(=O)c1cnc(-n2ncc3cc(C#N)cnc32)cc1Nc1cnn(CC(F)F)c1
7.80
CC(C)Nc1cc(-n2ncc3cc(C#N)cnc32)ncc1C(=O)NCCc1ccncc1
6.99
COC(C)(C)[C@H](F)CNC(=O)c1cnc(-n2ncc3cc(C#N)c(N)nc32)cc1NC(C)C
7.28

State the recorded pIC50 for this entry: CC(C)(O)[C@H](F)CNC(=O)c1cnc(-n2ccc3cc(C#N)cnc32)cc1Nc1cnn(C2CCOCC2)c1
7.15

* * *

# Test system: TLR2 induced IL-6 in peripheral blood mononuclear cells (PBMCs)
# experimental protocol: PBMC TLR2 Induced IL-6 Assay
# Assay type: cell-based, human
# setup conditions: Homo sapiens, PBMC, human PBMCs, lipoteichoic acid stimulated, IL-6 by ELISA; read-out: Cell EC50
Where a name gives a salt, the structure may show the parent alone.
measurement label: EC50 (µM)
Please give a number only; it is taken to be in µM.

# example entries with known answers
COc1cnc(N2CC[C@@H](Nc3cc(-n4ncc5cc(C#N)cnc54)ncc3C(=O)NC[C@@H](F)C(C)(C)O)C2)nc1
0.189
CC(C)(O)[C@H](F)CNC(=O)c1cnc(-n2ccc3cc(C#N)cnc32)cc1Nc1ccc2[nH]ncc2c1
0.033
CC1COCCN1CCNc1cc(-n2ccc3cc(C#N)cnc32)ncc1C(=O)NC[C@@H](F)C(C)(C)O (mixture of isomers)
0.199
CC(C)(O)[C@H](F)CNC(=O)c1cnc(-n2ncc3cc(C#N)cnc32)cc1N[C@@H]1CCN(c2ncccn2)C1
0.159
CC(C)Nc1cc(-n2ccc3cc(C#N)cnc32)ncc1C(=O)NC12CCC(O)(CC1)C2
0.286
CC(C)(O)[C@H](F)CNC(=O)c1cnc(-n2ccc3cc(C#N)cnc32)cc1NC1CCCC(CO)C1 (single isomer, unassigned)
0.108
CC(C)(O)[C@H](F)CNC(=O)c1cnc(-n2ncc3cc(C#N)cnc32)cc1N[C@H]1CCOC1 [Example 545, TFA salt]
0.476
CC(C)(O)[C@H]1CCC[C@@H](Nc2cc(-n3ncc4cc(C#N)cnc43)ncc2C(=O)NC[C@@H](F)C(C)(C)O)C1
0.163

State the recorded EC50 for this entry: CC(C)(O)[C@H](F)CNC(=O)c1cnc(-n2ccc3cc(C#N)cnc32)cc1N[C@@H]1CCNC1
0.792

State the recorded EC50 for this entry: CC(C)(O)[C@H](F)CNC(=O)c1cnc(-n2ccc3cc(C#N)cnc32)cc1N[C@@H]1CCN(C(=O)CC#N)C1
0.301

State the recorded EC50 for this entry: CS(=O)(=O)NCCNC(=O)c1cnc(-n2ccc3cc(C#N)cnc32)cc1NC1CC1
0.213

State the recorded EC50 for this entry: CC(=O)N1CC[C@@H](Nc2cc(-n3ccc4cc(C#N)cnc43)ncc2C(=O)NC[C@@H](F)C(C)(C)O)C1
0.084

State the recorded EC50 for this entry: CC(C)(O)[C@H](F)CNC(=O)c1cnc(-n2ccc3cc(C(N)=O)cnc32)cc1NCC1CNC1
0.305

State the recorded EC50 for this entry: CC(C)(O)[C@H](F)CNC(=O)c1cnc(-n2ncc3cc(C#N)cnc32)cc1NCC(C)(C)N1CCOCC1
0.425

* * *

# tested target: UniProt:Q9NWZ3
# Sequence (Q9NWZ3 whole entry, species assumed): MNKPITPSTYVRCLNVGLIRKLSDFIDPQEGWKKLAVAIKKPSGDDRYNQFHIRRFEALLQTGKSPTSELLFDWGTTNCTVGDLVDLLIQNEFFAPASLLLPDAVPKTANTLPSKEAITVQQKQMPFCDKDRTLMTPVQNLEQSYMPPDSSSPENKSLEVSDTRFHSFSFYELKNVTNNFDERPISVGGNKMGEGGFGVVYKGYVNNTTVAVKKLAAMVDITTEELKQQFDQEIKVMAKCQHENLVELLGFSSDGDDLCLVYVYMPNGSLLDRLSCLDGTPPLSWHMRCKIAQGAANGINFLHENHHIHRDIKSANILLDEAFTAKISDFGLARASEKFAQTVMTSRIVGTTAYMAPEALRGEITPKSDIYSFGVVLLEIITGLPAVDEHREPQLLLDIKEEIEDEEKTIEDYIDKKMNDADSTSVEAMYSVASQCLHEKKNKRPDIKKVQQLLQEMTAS
# experimental protocol: IRAK4 Inhibition Assay
# Assay type: biochemical
# setup conditions: ATP 500 μM; IRAK4 0.6 nM; read-out: IRAK4 IC50
# Protocol: The assays were performed in U-bottom 384-well plates. […] The reaction was initiated by the combination of IRAK4 with substrates and test compounds. The reaction mixture was incubated at room temperature for 60 min. and terminated by adding 45 μL of 35 mM EDTA to each sample. The reaction mixture was analyzed on the Caliper LABCHIP® 3000 (Caliper, Hopkinton, Mass.) by electrophoretic separation of the fluorescent substrate and phosphorylated product.
measurement label: IC50 (nM)
Please give a number only; it is taken to be in nM.

# example entries with known answers
CC(C)CC(C)Nc1cc(-n2ccc3cc(C#N)cnc32)ncc1C(=O)NC[C@@H](F)C(C)(C)O (single isomer, unassigned)
5.9
C[C@@H](F)CNc1cc(-n2ncc3cc(C#N)c(N)nc32)ncc1C(=O)NC[C@@H](F)C(C)(C)O
2.7
CC(C)(O)[C@H](F)CNC(=O)c1cnc(-n2ncc3cc(C#N)cnc32)cc1NCCNC(=O)OC(C)(C)C(F)(F)F
13.8
CC(C)(O)[C@H]1CC[C@H](NC(=O)c2cnc(-n3ncc4cc(C#N)cnc43)cc2NC2COC2)CC1
7
CC(C)(O)[C@H](F)CNC(=O)c1cnc(-n2ncc3cc(C#N)cnc32)cc1Nc1ccc(-n2cncn2)cc1
3.7

State the recorded IC50 for this entry: CC(C)(CNc1cc(-n2ncc3cc(Cl)cnc32)ncc1C(=O)NC[C@@H](F)C(C)(C)O)OC(F)F
6.7

State the recorded IC50 for this entry: CC(C)c1cc(Nc2cc(-n3ncc4cc(C#N)cnc43)ncc2C(=O)NC[C@@H](F)C(C)(C)O)[nH]n1
4.8

State the recorded IC50 for this entry: CC(C)Nc1cc(-n2ccc3cc(C#N)cnc32)ncc1C(=O)NCC(F)C1(O)COC1 (centres unmarked) [Example 495]
1.8

State the recorded IC50 for this entry: CC(C)(O)[C@H](F)CNC(=O)c1cnc(-n2ccc3cc(C#N)cnc32)cc1NC1COCC1(F)F (single isomer, unassigned) [Example 484]
3.5

State the recorded IC50 for this entry: CC(C)(O)[C@H](F)CNC(=O)c1cnc(-n2ccc3cc(C#N)cnc32)cc1Nc1ccc2nn[nH]c2c1
1.8

State the recorded IC50 for this entry: COC(=O)N1CC(Nc2cc(-n3ccc4cc(C#N)cnc43)ncc2C(=O)NC[C@@H](F)C(C)(C)O)C1
1.9

State the recorded IC50 for this entry: CC(C)(O)[C@H](F)CNC(=O)c1cnc(-n2ccc3cc(C#N)cnc32)cc1NCCC(F)(F)F
1.8

State the recorded IC50 for this entry: CC(C)(O)[C@H](F)CNC(=O)c1cnc(-n2ncc3cc(F)cnc32)cc1NC1CCC(F)C1 (single isomer, unassigned) [Example 619]
4

State the recorded IC50 for this entry: CC(C)C(O)CNc1cc(-n2ncc3cc(Cl)cnc32)ncc1C(=O)NC[C@@H](F)C(C)(C)O (single isomer, unassigned) [Example 594]
17.5

* * *

# System: TLR2 induced IL-6 in peripheral blood mononuclear cells (PBMCs)
# experimental protocol: PBMC TLR2 Induced IL-6 Assay
# Type: cell-based, human
# setup conditions: Homo sapiens, PBMC, PBMC TLR2 Induced IL-6 Assay; lipoteichoic acid stimulation, IL-6 by ELISA; read-out: Cell IC50
# Protocol: PBMC TLR2 Induced IL-6 Assay Peripheral blood mononuclear cells (PBMCs) were isolated from human blood containing the anti-coagulant EDTA (2.5 mM) by centrifugation over a FICOLL® gradient. PBMCs (250000 cells/well) were cultured in assay media (RPMI with 10% heat inactivated FCS) with compounds for 30 minutes at 37° C. in a 5% CO2 incubator. Following pretreatment with compounds, cells were stimulated for 5 hours with 10 µg/ml lipoteichoic acid (Invivogen, San Diego, Calif.), a TLR2 agonist. […]
Exam item: assign 1.0 to entries whose IC50 is below 700 nM and 0.0 to entries at or above 700 nM. Note that a value of exactly 700 nM receives 0.0.

CC(F)Cn1cc(Nc2cc(-n3cnc4cc(C#N)cnc43)ncc2C(=O)NC[C@@H](F)C(C)(C)O)cn1 (mixture of isomers)
1.0
CC(C)Nc1cc(-n2ncc3cc(C#N)cnc32)ncc1C(=O)Nc1cnn(C2CN(S(C)(=O)=O)C2)c1
1.0
CC(C)(O)CNc1cc(-n2ccc3cc(Cl)cnc32)ncc1C(=O)NC[C@@H](F)C(C)(C)O
1.0
CC(C)Nc1cc(-n2ncc3cc(C#N)cnc32)ncc1C(=O)N[C@H]1CC[C@H](NC(=O)[C@@H](C)O)CC1
1.0
CC(C)Nc1cc(-n2ncc3cc(C#N)cnc32)ncc1C(=O)Nc1cnn(CC(C)(C)O)c1
1.0

Does the reported IC50 of CC(=O)N[C@H]1CC[C@H](NC(=O)c2cnc(-n3ccc4cncnc43)cc2NC(C)C)CC1 stay below 700 nM?
0.0

Does the reported IC50 of CC(C)(O)CNc1cc(-n2ccc3cncnc32)ncc1C(=O)NC[C@@H](F)C(C)(C)O stay below 700 nM?
0.0
